experimental-target: TBPS binding, rat brain cortical membranes in the presence of 5 μM GABA
assay-notes: 35S-TBPS displacement (steroid inhibition of TBPS binding)
experimental-setup: read-out: 35S-TBPS Radioligand Displacement (IC50)
Provide the reported IC50 of each item.

Recorded IC50 (compound CO[C@@H]1C[C@]2(C)[C@@H](C#N)CC[C@H]2[C@@H]2CC[C@H]3C[C@H](O)CC[C@]3(C)C21 (stereo partly drawn) [Compound 34] ): 100 to 500 nM

Recorded IC50 (compound C[C@H]1[C@H](O)CC[C@@]2(C)[C@H]1CC[C@@H]1[C@@H]2CC[C@]2(C)[C@@H](C#N)CC[C@@H]12 [Compound 49] ): 100 to 500 nM

Recorded IC50 (compound CC(C)O[C@H]1C[C@@]2(C)[C@@H](CC[C@H]3[C@@H]4CC[C@H](C#N)[C@@]4(C)CC(=O)[C@@H]32)C[C@@H]1O [Compound 22] ): 50 to 100 nM

Recorded IC50 (compound C[C@H]1[C@H](O)CC[C@]2(C)[C@@H]3[C@@H](CC[C@@H]12)[C@@H]1CC[C@H](C#N)[C@@]1(C)C[C@@H]3O [Compound 56] ): > 500 nM

Recorded IC50 (compound CCO[C@H]1C[C@@]2(C)[C@@H](CC[C@@H]3[C@@H]2[C@@H](O)C[C@]2(C)[C@@H](C#N)CC[C@@H]32)C[C@@H]1O [Compound 10] ): > 500 nM

Recorded IC50 (compound CC[C@H]1C[C@@]2(C)[C@@H](CC[C@@H]3[C@@H]2CC[C@]2(C)[C@@H](C#N)CC[C@@H]32)C[C@@H]1O [Compound 41] ): < 10 nM

----------
Provide the reported IC50 of each item.
experimental-target: TBPS binding, rat brain cortical membranes in the presence of 5 μM GABA
assay-notes: 35S-TBPS displacement (steroid inhibition of TBPS binding)
experimental-setup: read-out: 35S-TBPS Radioligand Displacement (IC50)

Fill in: TBPS binding, rat brain cortical membranes in the presence of 5 μM GABA IC50 for `C[C@]12C[C@H](OC3CC3)[C@@H](O)C[C@@H]1CC[C@@H]1[C@@H]2CC[C@]2(C)[C@H](C#N)CC[C@@H]12` = > 500 nM

Fill in: TBPS binding, rat brain cortical membranes in the presence of 5 μM GABA IC50 for `CCCO[C@H]1C[C@@]2(C)[C@@H](CC[C@H]3[C@@H]4CC[C@H](C#N)[C@@]4(C)CC(=O)[C@@H]32)C[C@@H]1O` = 10 to 50 nM

Fill in: TBPS binding, rat brain cortical membranes in the presence of 5 μM GABA IC50 for `COCCO[C@H]1C[C@@]2(C)[C@@H](CC[C@@H]3[C@@H]2[C@@H](O)C[C@]2(C)[C@@H](C#N)CC[C@@H]32)C[C@@H]1O` = > 500 nM

Fill in: TBPS binding, rat brain cortical membranes in the presence of 5 μM GABA IC50 for `CO[C@H]1C[C@]2(C)[C@@H](C#N)CC[C@H]2[C@@H]2CC[C@H]3C[C@H](O)CC[C@]3(C)[C@H]21` = 10 to 50 nM

Fill in: TBPS binding, rat brain cortical membranes in the presence of 5 μM GABA IC50 for `C[C@H]1C[C@@]2(C)[C@@H](CC[C@@H]3[C@@H]2CC[C@]2(C)[C@@H](C#N)CC[C@@H]32)C[C@@H]1O` = 10 to 50 nM

Fill in: TBPS binding, rat brain cortical membranes in the presence of 5 μM GABA IC50 for `COCCO[C@H]1C[C@@]2(C)[C@@H](CC[C@H]3[C@@H]4CC[C@H](C#N)[C@@]4(C)CC(=O)[C@@H]32)C[C@@H]1O` = > 500 nM
